test system: K86415-001-R-J1-PDC complex spheroids, viability; experiment: Anticancer human tumor K86415-001-R-J1-PDC patient-derived lung adenocarcinoma cell line growth inhibition [RAS]; conditions: compound alone; run of 07/15/2024;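 further: spheroids exposed to agents for seven days before readout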
Entries and their IC50

>>> assay_value("C=CC(=O)N1CCN(c2nc(OCC3CCCN3C)nc3c(F)c(-c4nc(N)cc(C)c4C(F)(F)F)c(Cl)cc23)C(C)C1 (configuration not stated)")
"< 3.16 nM"

Below: the item to evaluate.
Identify measured IC50 corresponding to C#Cc1c(F)ccc2cc(O)cc(-c3ncc4c(N5CC6CCC(C5)N6)nc(OCC56CCCN5CC(F)C6)nc4c3F)c12 (configuration not stated) 1.81 µM [middle of 7 runs]
